System: M14
Assay: Cytotoxicity against human M14 cells after 48 hrs by SRB assay
Assay type: functional
Settings: M14, 48 h
// classify: if (GI50 < 4000 nM) T else F

Query: # check: GI50 < 4000 nM for O=CN1N=C(c2cccc(Nc3ccnc4cc(Cl)ccc34)c2)CC1c1ccc(Cl)cc1 (stereo unspecified)
Result: T

Query: # check: GI50 < 4000 nM for COc1cc(C2CC(c3ccc(Nc4ccnc5cc(Cl)ccc45)cc3)=NN2C=O)cc(OC)c1OC (stereo unspecified)
Result: T

Query: # check: GI50 < 4000 nM for COc1ccc(C2CC(c3ccc(Nc4ccnc5cc(Cl)ccc45)cc3)=NN2C=O)cc1 (stereo unspecified)
Result: F

Query: # check: GI50 < 4000 nM for COc1cccc2c1C(=O)c1c(O)c3c(c(O)c1C2=O)C[C@@](O)(C(=O)CO)C[C@@H]3O[C@H]1C[C@H](N)[C@H](O)[C@H](C)O1 [DOXORUBICIN]
Result: T

Query: # check: GI50 < 4000 nM for COc1cc(C2CC(c3cccc(Nc4ccnc5cc(Cl)ccc45)c3)=NN2C=O)cc(OC)c1OC (stereo unspecified)
Result: T

Query: # check: GI50 < 4000 nM for O=CN1N=C(c2ccc(Nc3ccnc4cc(Cl)ccc34)cc2)CC1c1ccc(Cl)cc1 (stereo unspecified)
Result: T

Query: # check: GI50 < 4000 nM for O=CN1N=C(c2cccc(Nc3ccnc4cc(Cl)ccc34)c2)CC1c1ccccc1 (stereo unspecified)
Result: T

Query: # check: GI50 < 4000 nM for CC(=O)N1N=C(c2ccc(Nc3ccnc4cc(Cl)ccc34)cc2)CC1c1ccc(Cl)cc1 (stereo unspecified)
Result: F

Query: # check: GI50 < 4000 nM for COc1ccc(C2CC(c3cccc(Nc4ccnc5cc(Cl)ccc45)c3)=NN2C=O)cc1 (stereo unspecified)
Result: T

Query: # check: GI50 < 4000 nM for Cc1ccc(C2CC(c3ccc(Nc4ccnc5cc(Cl)ccc45)cc3)=NN2C=O)cc1 (stereo unspecified)
Result: F

----------
Would you mind telling me the reported log10(GI50) of each entry?
Tested on: COLO 205
Experiment: Cytotoxicity against human COLO205 cells after 48 hrs by SRB assay
Type: functional
Settings: COLO 205, 48 h
Note the log scale: values are log10 of GI50 expressed in nM.

Query: Output reported log10(GI50) of the compound O=CN1N=C(c2cccc(Nc3ccnc4cc(Cl)ccc34)c2)CC1c1ccc(Cl)cc1 (stereo unspecified) on COLO 205.
Result: 3.14

Query: Output reported log10(GI50) of the compound O=CN1N=C(c2cccc(Nc3ccnc4cc(Cl)ccc34)c2)CC1c1ccccc1 (stereo unspecified) on COLO 205.
Result: 2.56

Query: Output reported log10(GI50) of the compound COc1cc(C2CC(c3cccc(Nc4ccnc5cc(Cl)ccc45)c3)=NN2C=O)cc(OC)c1OC (stereo unspecified) on COLO 205.
Result: 2.81

Query: Output reported log10(GI50) of the compound O=CN1N=C(c2ccc(Nc3ccnc4cc(Cl)ccc34)cc2)CC1c1ccc(Cl)cc1 (stereo unspecified) on COLO 205.
Result: 3.38

Query: Output reported log10(GI50) of the compound CC(=O)N1N=C(c2ccc(Nc3ccnc4cc(Cl)ccc34)cc2)CC1c1ccc(Cl)cc1 (stereo unspecified) on COLO 205.
Result: 3.77

Query: Output reported log10(GI50) of the compound `COc1cccc2c1C(=O)c1c(O)c3c(c(O)c1C2=O)C[C@@](O)(C(=O)CO)C[C@@H]3O[C@H]1C[C@H](N)[C@H](O)[C@H](C)O1` on COLO 205.
Result: 2.26

Query: Output reported log10(GI50) of the compound O=CN1N=C(c2ccc(Nc3ccnc4cc(Cl)ccc34)cc2)CC1c1ccccc1 (stereo unspecified) on COLO 205.
Result: 3.34

Query: Output reported log10(GI50) of the compound Cc1ccc(C2CC(c3ccc(Nc4ccnc5cc(Cl)ccc45)cc3)=NN2C=O)cc1 (stereo unspecified) on COLO 205.
Result: 3.66

Query: Output reported log10(GI50) of the compound COc1cc(C2CC(c3ccc(Nc4ccnc5cc(Cl)ccc45)cc3)=NN2C=O)cc(OC)c1OC (stereo unspecified) on COLO 205.
Result: 3.57

Query: Output reported log10(GI50) of the compound COc1ccc(C2CC(c3ccc(Nc4ccnc5cc(Cl)ccc45)cc3)=NN2C=O)cc1 (stereo unspecified) on COLO 205.
Result: 3.55

Query: Output reported log10(GI50) of the compound COc1ccc(C2CC(c3cccc(Nc4ccnc5cc(Cl)ccc45)c3)=NN2C=O)cc1 (stereo unspecified) on COLO 205.
Result: 2.65
